- System: diamondback moth (Plutella xylostella)
- method.summary: Test Method 2: foliar spray on cabbage seedling, diamondback moth larvae
- Type: in vivo
- condition.notes: 200 ppm, sprayed 20 mL/seedling on cabbage, third-instar larvae, after 6 days, Formulation Example 5, 25° C.
assay.endpoint: mortality (%)

chem.smiles: CC1=CC(=O)[C@H]2CC(=O)[C@H]3[C@@](C)(C[C@@]45OC(=O)C[C@]3(C)[C@]4(C)CC[C@]34C[C@@H](C)C[C@H](CN35)O4)[C@@H]2C1.Cl
assayed.target: diamondback moth (Plutella xylostella)
measured.result: 100
//
chem.smiles: CC1=CC(=O)[C@H]2CC(=O)[C@H]3[C@@](C)(C[C@@]45OC(=O)C[C@]3(C)[C@]4(C)CC[C@]34C[C@@H](C)C[C@H](CN35)O4)[C@@H]2C1
assayed.target: diamondback moth (Plutella xylostella)
measured.result: 100
//
chem.smiles: CC1=CC(=O)[C@@H]2[C@@H](C1)[C@]1(C)C[C@@]34OC(=O)C[C@@](C)([C@H]1C(=O)[C@@H]2C)[C@]3(C)CC[C@]12C[C@@H](C)C[C@H](CN14)O2
assayed.target: diamondback moth (Plutella xylostella)
measured.result: 100
//
chem.smiles: CC1=CC(=O)[C@@H]2[C@@H](C1)[C@]1(C)C[C@@]34OC(=O)C[C@@](C)([C@H]1C(=O)[C@@H]2C)[C@]3(C)CC[C@]12C[C@@H](C)C[C@H](CN14)O2.Cl
assayed.target: diamondback moth (Plutella xylostella)
measured.result: 100
